# System: G401
# assay.summary: relative viability vs DMSO control (72 h) (fraction); higher = more viable cells
# measurement.context: 0.00051 µM

# compound, relative viability
measured = [
    ("N#CCC1(n2cc(-c3ncnc4[nH]ccc34)cn2)CN(C2CCN(C(=O)c3ccnc(C(F)(F)F)c3F)CC2)C1 [Itacitinib]", 0.967),
    ("CO[C@@H]1[C@H](N(C)C(=O)c2ccccc2)C[C@H]2O[C@]1(C)n1c3ccccc3c3c4c(c5c6ccccc6n2c5c31)C(=O)NC4 [Midostaurin]", 0.976),
    ("COc1cc2ncnc(Nc3ccc(F)c(Cl)c3)c2cc1NC(=O)/C=C/CN1CCCCC1 [Dacomitinib]", 1.01),
]

----------
# Tested on: VA-ES-BJ
# assay.summary: relative viability vs DMSO control (72 h) (fraction); higher = more viable cells
# measurement.context: 0.3704 µM

# compound, relative viability
measured = [
    ("CCCCCCCCCCCCCCCCCCOP(=O)([O-])OC1CC[N+](C)(C)CC1 [Perifosine]", 1.05),
    ("C=CC(=O)Nc1cc(Nc2nccc(-c3cn(C)c4ccccc34)n2)c(OC)cc1N(C)CCN(C)C [Osimertinib]", 0.926),
    ("CN(C)C[C@@H]1CCn2cc(c3ccccc32)C2=C(C(=O)NC2=O)c2cn(c3ccccc23)CCO1 [Ruboxistaurin]", 0.945),
    ("NC(=O)c1cccc2cn(-c3ccc([C@@H]4CCCNC4)cc3)nc12 [Niraparib]", 0.947),
]

----------
# Tested on: A204
# assay.summary: relative viability vs DMSO control (72 h) (fraction); higher = more viable cells
# measurement.context: 0.3704 µM
assay.readout: relative viability

# sample.smiles, observed.result
rows = [
    ("CCN(c1cc(-c2ccc(CN3CCOCC3)cc2)cc(C(=O)NCc2c(C)cc(C)[nH]c2=O)c1C)C1CCOCC1", 1.08),
    ("Cc1c(F)cc(C(=O)NC2CC2)cc1-c1ccc(C(=O)NCC(C)(C)C)cn1", 1.03),
    ("COc1cc(OC)cc(N(CCNC(C)C)c2ccc3ncc(-c4cnn(C)c4)nc3c2)c1", 0.322),
]

----------
# System: SK-ES-1
# assay.summary: standardised AUC of viability dose-response curve (72 h) (fraction (0-1)); higher = less growth inhibition (more resistant)
Measured standardised AUC by item

# sample.smiles, standardised AUC
records = [
    ("C[C@@H]1COC(Nc2ccc3ncnc(Nc4ccc(OCc5nccs5)c(Cl)c4)c3c2)=N1", 0.97),
    ("FC(F)(F)c1ccc(CNc2ccc(Cc3c[nH]c4ncc(Cl)cc34)cn2)cn1", 0.97),
    ("N#Cc1ccnc(N2C(=O)CC[C@H]2C(=O)N(c2cncc(F)c2)[C@H](C(=O)NC2CC(F)(F)C2)c2ccccc2Cl)c1", 0.997),
    ("CCN(CCCOc1ccc2c(Nc3cc(CC(=O)Nc4cccc(F)c4)[nH]n3)ncnc2c1)CCOP(=O)(O)O", 0.4),
    ("COc1cc2c(Oc3ccc4[nH]c(C)cc4c3F)ccnc2cc1OCC1(N)CC1", 0.851),
    ("CCN(c1cc(-c2ccc(CN3CCOCC3)cc2)cc(C(=O)NCc2c(C)cc(C)[nH]c2=O)c1C)C1CCOCC1", 0.96),
    ("CN(C)C[C@@H]1CCn2cc(c3ccccc32)C2=C(C(=O)NC2=O)c2cn(c3ccccc23)CCO1", 0.911),
    ("CO[C@@H]1[C@H](N(C)C(=O)c2ccccc2)C[C@H]2O[C@]1(C)n1c3ccccc3c3c4c(c5c6ccccc6n2c5c31)C(=O)NC4", 0.689),
    ("Cc1nc(Nc2ncc(C(=O)Nc3c(C)cccc3Cl)s2)cc(N2CCN(CCO)CC2)n1", 0.907),
]
